The reported numbers originate from PubChem BioAssay AID1159580.

MEASUREMENT PROTOCOL: chemical genetic growth profiling, strain panel (AID 1159580);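 note: tested at 20 µM; growth read once vehicle control cultures reached saturation at 30 °C; 1 = growth at the plate median or of vehicle wells; lower values mean less growth of the strain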
CONDITION SET: S. cerevisiae deletion strains, growth OD, locus YNL233W, strain BNI4, active compounds read low
The whole screen tested about 5,500 compounds, of which about 2,000 (36%) were called active. Roughly 18% stayed inconclusive and do not appear here. The list shows a part of the results.
This section presents molecules with their documented normalized growth values.
Lab note: jot down the number only; don't add units.

MOLECULE	normalized growth
CCCCNc1ccc(C(=O)OCCN(C)C)cc1	1
O=C1CC2OCC=C3CN4CC[C@]56c7ccccc7N1C5[C@H]2[C@H]3CC46 (some centres not stated)	1.01
NS(=O)(=O)c1cc2c(cc1Cl)NC(C(Cl)Cl)NS2(=O)=O (configuration not stated)	1.01
C=C1C(=O)O[C@@H]2C3O[C@]3(C)CC/C=C(\C)CC[C@@H]12 (some centres not stated)	0.763
O=C1[C@H](CCC(O)c2ccc(F)cc2)[C@@H](c2ccc(O)cc2)N1c1ccc(F)cc1 (some centres not stated)	0.984
CC(=O)N[C@@H](CS)C(=O)O	1.01
CCCCOC(=O)c1ccc(N)cc1	0.86
CCC(C)c1cnc(CC(C)C)c(=O)n1O (configuration not stated)	0.969

Asked: Determine its reported normalized growth: CCCCCCOc1ccccc1C(N)=O
Given back: 0.326

Asked: Determine its reported normalized growth: CCCCOC(=O)c1ccccc1C(=O)OCc1ccccc1
Given back: 0.998

Asked: Determine its reported normalized growth: NC(N)=NS(=O)(=O)c1ccc(N)cc1
Given back: 1.03

Asked: Determine its reported normalized growth: CCCCOC(=O)c1ccccc1C(=O)OCCCC
Given back: 0.994

###

MEASUREMENT PROTOCOL: chemical genetic growth profiling, strain panel (AID 1159580)
CONDITION SET: S. cerevisiae deletion strains, growth OD, locus YJL092W, strain hpr5, active compounds read low
About 2,000 (36%) of roughly 5,500 compounds were called active. Inconclusive results (about 18%) are left out. This is one part of the list.
METRIC: normalized growth
Lab note: jot down the number only; don't add units.

COMPOUND	normalized growth
CCCCCCOc1ccccc1C(N)=O	0.919
Nc1nc2ncc(=O)[nH]c2c(=O)[nH]1	0.976
COC(=O)C(O)c1ccccc1 (centres undefined)	0.991

Asked: Determine its reported normalized growth: COc1ccc([C@H]2Oc3cc(OC)cc(OC)c3C[C@H]2O)cc1
Given back: 0.997

Asked: Determine its reported normalized growth: N[C@@H](CC(=O)N1CCn2c(nnc2C(F)(F)F)C1)Cc1cc(F)c(F)cc1F
Given back: 0.989

Asked: Determine its reported normalized growth: CCCOc1ccc(C(=O)OCCN(CC)CC)cc1N
Given back: 1

Asked: Determine its reported normalized growth: CCC(C)(C)C(=O)O[C@H]1C[C@@H](C)C=C2C=C[C@H](C)[C@H](CC[C@@H]3C[C@@H](O)CC(=O)O3)[C@H]21
Given back: 1.01

Asked: Determine its reported normalized growth: CC(C)COCC(CN(Cc1ccccc1)c1ccccc1)N1CCCC1 (centres undefined)
Given back: 1.01

Asked: Determine its reported normalized growth: Cc1cc(-c2ccccc2)nnc1NCCN1CCOCC1
Given back: 0.988

Asked: Determine its reported normalized growth: COC(=O)C(C)c1ccc(C(=O)c2cccs2)cc1 (centres undefined)
Given back: 1

Asked: Determine its reported normalized growth: O=C1OC2(c3ccc(O)cc3Oc3cc(O)ccc32)c2ccccc21
Given back: 1.02

Asked: Determine its reported normalized growth: CCCCNc1ccc(C(=O)OCCN(C)C)cc1
Given back: 1.02

Asked: Determine its reported normalized growth: O=c1cc(-c2ccccc2O)oc2cc(O)ccc12
Given back: 0.954

Asked: Determine its reported normalized growth: COc1ccc2c(c1)O[C@H]1c3ccc(OC)cc3OC[C@@H]21
Given back: 1.02

Asked: Determine its reported normalized growth: CCN(CC)CCOC(=O)c1ccc(N)cc1
Given back: 0.992

Asked: Determine its reported normalized growth: C[C@@H]1C(=O)OC2[C@H](O)C34[C@@H]5OC(=O)[C@@]3(O[C@@H]3OC(=O)[C@H](O)[C@@]34[C@H](C(C)(C)C)[C@H]5O)[C@]21O (some centres undefined)
Given back: 0.975

Asked: Determine its reported normalized growth: COc1cc([C@@H]2c3cc4c(c(O)c3C[C@H]3COC(=O)[C@@H]32)OCO4)cc(OC)c1OC
Given back: 0.999

Asked: Determine its reported normalized growth: CC1(C)O[C@H]2[C@H](O)C[C@](O)(C(N)=O)C[C@H]2O1
Given back: 1.01

Asked: Determine its reported normalized growth: CC1(C)NC(=O)N(c2ccc([N+](=O)[O-])c(C(F)(F)F)c2)C1=O
Given back: 0.978

###

MEASUREMENT PROTOCOL: chemical genetic growth profiling, strain panel (AID 1159580)
CONDITION SET: S. cerevisiae deletion strains, growth OD, locus YBL061C, strain skt5, active compounds read low
Out of some 5,500 compounds screened, about 2,000 (36%) were called active. Roughly 18% stayed inconclusive and do not appear here. This is one part of the list.
This section presents compounds with their documented normalized growth values.
Lab note: jot down the number only; don't add units.

COMPOUND	normalized growth
COc1ccc(-c2coc3cc(OC)cc(OC)c3c2=O)cc1	0.972

Read the next record carefully.
Asked: Determine its reported normalized growth: COc1cc(-c2coc3cc(OC)c(OC)c(OC)c3c2=O)cc(OC)c1OC
Given back: 0.996

###

MEASUREMENT PROTOCOL: chemical genetic growth profiling, strain panel (AID 1159580);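 note: tested at 20 µM; growth read once vehicle control cultures reached saturation at 30 °C; 1 = growth at the plate median or of vehicle wells; lower values mean less growth of the strain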
CONDITION SET: S. cerevisiae deletion strains, growth OD, locus YML070W, strain DAK1, active compounds read low
The campaign covered roughly 5,500 compounds. About 2,000 (36%) were called active. Not shown: some 18% with an inconclusive outcome. This is one part of the list.
This section presents molecules with their documented normalized growth values.
Lab note: jot down the number only; don't add units.

A selection of reference data follows.
SMILES INPUT	normalized growth
Cc1c(C(=S)Nc2ccccc2)sc2ccccc12	0.865
S=c1[nH]nc(Nc2ccc(I)cc2)s1	0.676

Asked: Determine its reported normalized growth: CCCCN(C)C(=O)c1cc([N+](=O)[O-])cc2c1-c1ccc([N+](=O)[O-])cc1C2=C(C#N)C#N
Given back: 0.94

###

MEASUREMENT PROTOCOL: chemical genetic growth profiling, strain panel (AID 1159580);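 note: tested at 20 µM; growth read once vehicle control cultures reached saturation at 30 °C; 1 = growth at the plate median or of vehicle wells; lower values mean less growth of the strain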
CONDITION SET: S. cerevisiae deletion strains, growth OD, locus YPL256C, strain CLN2, active compounds read low
In all, about 5,500 compounds went through this assay and about 2,000 (36%) were called active. Roughly 18% stayed inconclusive and do not appear here. Some of the results follow.
METRIC: normalized growth

COMPOUND	normalized growth
Cc1ccc(NS(=O)(=O)c2ccc(-c3csc(C)n3)s2)c(C)c1	0.715 (active)
CCCCN(C)C(=O)c1cc([N+](=O)[O-])cc2c1-c1ccc([N+](=O)[O-])cc1C2=C(C#N)C#N	0.968 (inactive)
C#CCCCCCCCCCCCC(O)CC(O)CO (stereo unspecified)	0.881 (inactive)
CC1(C)C2(Cl)C(Cl)C(Cl)C(Cl)(C(Cl)Cl)C1(Cl)C2Cl (stereo unspecified)	0.9 (inactive)
O=c1cc(-c2ccccc2O)oc2cc(O)ccc12	0.95 (inactive)

Asked: Determine its reported normalized growth: O=c1cc[nH]c(=S)[nH]1
Given back: 1 (inactive)

Asked: Determine its reported normalized growth: CCOC(=O)[C@H](CCc1ccccc1)N[C@@H](C)C(=O)N1[C@H](C(=O)O)C[C@@H]2CCC[C@@H]21
Given back: 0.973 (inactive)

Asked: Determine its reported normalized growth: Cc1nc(-c2ccc(S(=O)(=O)Nc3ccc(Br)cc3Cl)s2)cs1
Given back: 0.672 (active)

Asked: Determine its reported normalized growth: CC(=O)OCC[C@H](C)CCC=C(C)C
Given back: 0.997 (inactive)

Asked: Determine its reported normalized growth: CCCC(=O)O[C@]1(C(=O)CO)CCC2[C@@H]3CCC4=CC(=O)CC[C@]4(C)C3[C@@H](O)C[C@@]21C (stereo partly specified)
Given back: 1.05 (inactive)

Asked: Determine its reported normalized growth: C#CCCCCCCCCCCCC(O)CC(O)COC(C)=O (stereo unspecified)
Given back: 0.981 (inactive)

###

MEASUREMENT PROTOCOL: chemical genetic growth profiling, strain panel (AID 1159580);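 note: tested at 20 µM; growth read once vehicle control cultures reached saturation at 30 °C; 1 = growth at the plate median or of vehicle wells; lower values mean less growth of the strain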
CONDITION SET: S. cerevisiae deletion strains, growth OD, locus YDR363W, strain ESC2, active compounds read low
Among all 5,500 compounds or so, about 2,000 (36%) were called active. Another 18% or so got no clear call; they are omitted. The list shows a part of the results.
METRIC: normalized growth
Lab note: jot down the number only; don't add units.

Asked: Determine its reported normalized growth: COC(=O)C1C2CC3c4[nH]c5cc(OC)ccc5c4CCN3CC2CC(OC(=O)c2cc(OC)c(OC)c(OC)c2)C1OC (centres undefined)
Given back: 1

Asked: Determine its reported normalized growth: CC(C)(C)C1(O)CCN2CC3c4ccccc4CCc4cccc(c43)C2C1 (centres undefined)
Given back: 1.04

Asked: Determine its reported normalized growth: NCCc1c[nH]c2ccc(C(N)=O)cc12
Given back: 1.01
